tested on: doxorubicin-resistant A2780ADR human ovarian cancer cell line; experiment: Cell growth, resazurin assay, A2780ADR; assay type: cell-based; conditions: 72-h exposure
QUANTITY: IC50

1. COc1cccc2c1C(=O)c1c(O)c3c(c(O)c1C2=O)CC(O)(C(=O)CO)CC3OC1CC(N)C(N)C(C)O1.O=C1[O][Pt][O]C1=O (centres unmarked) : 72 nM
2. O=C1[O][Pt]2([NH][C@@H]3CCCC[C@H]3[NH]2)[O]C1=O : 430 nM

====

tested on: A549 human lung carcinoma; experiment: Cell growth, resazurin assay, A549; type: cell-based; details: Homo sapiens, A549; 96-h exposure (table title)
QUANTITY: IC50 (nM)

1. COc1cccc2c1C(=O)c1c(O)c3c(c(O)c1C2=O)C[C@@](O)(C(=O)CO)C[C@@H]3O[C@H]1C[C@H](N)[C@H](O)[C@H](C)O1 : 23

====

system: OVCAR8 human ovarian cancer cell line; experiment: Cell growth, resazurin assay, OVCAR8; assay type: cell-based; settings: 72-h exposure
pIC50: −log10 of the molar value.
Recorded pIC50, one value per entry.
QUANTITY: pIC50

1. COc1cccc2c1C(=O)c1c(O)c3c(c(O)c1C2=O)CC(O)(C(=O)CO)CC3OC1CC(N)C(N)C(C)O1.O=C1[O][Pt][O]C1=O (centres unmarked) [DoxPt, Doxaliplatin] : 6.85
2. O=C1[O][Pt]2([NH][C@@H]3CCCC[C@H]3[NH]2)[O]C1=O [Ox, oxaliplatin] : 6.24

====

test system: APC−/−; KRASG12D/WT; P53−/−; TdTomato+ (AKP-tdt) organoids; assay: Viability of AKP-tdt murine colorectal cancer organoids, resazurin assay; format: cell-based; details: 72-h exposure (table title); read-out: IC50 against AKP-tdt organoids
QUANTITY: IC50

1. O=C1[O][Pt]2([NH][C@@H]3CCCC[C@H]3[NH]2)[O]C1=O [Ox, oxaliplatin] : 4100 nM
2. COc1cccc2c1C(=O)c1c(O)c3c(c(O)c1C2=O)CC(O)(C(=O)CO)CC3OC1CC(N)C(N)C(C)O1.O=C1[O][Pt][O]C1=O (centres unmarked) [DoxPt, Doxaliplatin] : 430 nM

====

system: A549 human lung carcinoma; test: Cell growth, resazurin assay, A549; format: cell-based; conditions: 96-h exposure (table title)
Recorded IC50, one value per entry.
QUANTITY: IC50 (nM)

1. COc1cccc2c1C(=O)c1c(O)c3c(c(O)c1C2=O)CC(O)(C(=O)CO)CC3OC1CC(N)C(N)C(C)O1.O=C1[O][Pt][O]C1=O (centres unmarked) [DoxPt, Doxaliplatin] : 100
2. O=C1[O][Pt]2([NH][C@@H]3CCCC[C@H]3[NH]2)[O]C1=O [Ox, oxaliplatin] : 400

====

test system: PC3 human prostate adenocarcinoma; assay: Cell growth, resazurin assay, PC3; assay type: cell-based; details: 96-h exposure (table title)
Recorded IC50, one value per entry.
QUANTITY: IC50

1) O=C1[O][Pt]2([NH][C@@H]3CCCC[C@H]3[NH]2)[O]C1=O [Ox, oxaliplatin] : 1000 nM
2) COc1cccc2c1C(=O)c1c(O)c3c(c(O)c1C2=O)CC(O)(C(=O)CO)CC3OC1CC(N)C(N)C(C)O1.O=C1[O][Pt][O]C1=O (centres unmarked) [DoxPt, Doxaliplatin] : 92 nM

Value source: patent US11203608B2
